target: T1, Human CD137 ECD (human); experiment: SPR Biacore T200, 37 C, Ab captured on anti-human Fc, antigen as analyte;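 note: recombinant human CD137 flowed over antibodies held by amine-coupled anti-human Fc on a CM4 chip, run in ACES pH 7.4 buffer with 150 mM NaCl and 0.05% Tween 20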
T1 construct: also called human CD137 extracellular domain; recombinant human CD137
T1 sequence (chain, as listed by the source limits assumed): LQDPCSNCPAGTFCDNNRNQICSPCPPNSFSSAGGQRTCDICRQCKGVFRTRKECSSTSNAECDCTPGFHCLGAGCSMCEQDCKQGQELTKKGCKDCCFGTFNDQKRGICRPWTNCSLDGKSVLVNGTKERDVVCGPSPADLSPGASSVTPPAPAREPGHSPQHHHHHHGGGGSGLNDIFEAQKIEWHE
reported metric: Kd (nM)
Number only, in nM; omit the unit.

Q: I would be grateful if you could share the reported Kd for H1571L0581 (antibody, V domains shown, Dual-Ig, IgG; also called dBBDu183H1571/dBBDu072L0581) VH: QVQLVESGGGLVQPGRSLRLSCAASGFKFSNVWFHWVRQAPGKGLEWVAQIKDKYNAYATYYAPSVKGRFTISRDDSKNSIYLQMNSLKTEDTAVYYCHYVHYASASTLLPAFGVDAWGQGTTVTVSS VL: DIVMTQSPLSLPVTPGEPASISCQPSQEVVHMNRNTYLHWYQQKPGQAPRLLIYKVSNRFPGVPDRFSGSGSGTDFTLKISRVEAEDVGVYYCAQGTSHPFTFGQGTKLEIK .
Result: 86.8
